molecular target: human histamine H4 receptor (Homo sapiens); construct: cell membranes; assay: Binding assay on recombinant human histamine H4 receptor (3H-histamine displacement); conditions: membranes of SK-N-MC or COS7 cells expressing human H4 receptor, Cheng-Prusoff
Sequence (Q9H3N8 whole entry): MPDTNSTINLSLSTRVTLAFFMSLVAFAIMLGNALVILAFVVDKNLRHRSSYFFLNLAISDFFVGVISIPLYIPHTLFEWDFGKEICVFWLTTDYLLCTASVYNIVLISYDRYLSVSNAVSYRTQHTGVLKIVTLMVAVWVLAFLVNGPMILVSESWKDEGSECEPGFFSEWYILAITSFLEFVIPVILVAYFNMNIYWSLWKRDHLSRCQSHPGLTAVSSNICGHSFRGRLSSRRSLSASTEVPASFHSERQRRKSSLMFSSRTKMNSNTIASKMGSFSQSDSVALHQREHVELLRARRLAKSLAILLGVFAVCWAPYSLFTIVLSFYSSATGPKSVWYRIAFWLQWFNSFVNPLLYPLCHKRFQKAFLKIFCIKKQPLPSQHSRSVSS
experimental_readout: log10 Ki (log10 of the value in nM)

COc1cccc(-c2nc(-c3ccc(OCCCC4CCN(C)CC4)cc3Cl)[nH]c2-c2cccc(OC)c2)c1
1.57
Cc1ccc(-c2[nH]c(-c3ccc(OCCCC4CCN(C)CC4)cc3Cl)nc2-c2ccc(Cl)cc2)cc1
1.46
Cc1cc(OCCCC2CCN(C)CC2)ccc1-c1nc(-c2ccc(Cl)cc2)c(C)[nH]1
1.52
CN1CCN(CCCOc2ccc(-c3nc(-c4ccccc4Cl)c(-c4ccccc4Cl)[nH]3)c(Cl)c2)CC1
2.39
Cc1[nH]c(-c2ccc(OCCCC3CCN(C)CC3)nc2)nc1-c1ccc(C(F)(F)F)cc1
1.81
Cc1[nH]c(-c2ccc(OCCCC3CCN(C)CC3)cc2Cl)nc1-c1ccc(Cl)cc1
1.34
Cc1cc(OCCOC2CCN(C)CC2)ccc1-c1nc(-c2ccc(Cl)cc2)c(C)[nH]1
2.79
CCCc1[nH]c(-c2ccc(OCCCC3CCN(C)CC3)cc2Cl)nc1C
1.84

// provenance: patent US8017600B2
